# IC90 (μg/ml) EFA 29212 per entry
- System: EFA 29212 (Enterococcus faecalis (ATCC29212))
- assay-details: Microtitre plate assay, IC90 determination
- Assay type: cell-based
- stated-conditions: Enterococcus faecalis (ATCC29212)

Request: For the compound COc1nc2cc(Br)ccc2cc1C(c1ccccc1)C(O)(CCCCN(C)C)c1ccc2ccccc2c1 (stereo not shown) [Compound 33] , what IC90 (μg/ml) EFA 29212 is on record?
Result: 46.3 µg/mL

Request: For the compound COc1nc2ccc(Br)cc2cc1C(c1ccccc1)C(O)(CCCCN1CCC(C)CC1)c1ccc2ccccc2c1 (racemic) , what IC90 (μg/ml) EFA 29212 is on record?
Result: 10.11 µg/mL

Request: For the compound COc1ccc2cc(C(O)(CCCCN(C)C)C(c3ccccc3)c3cc4cc(Br)ccc4nc3OC)ccc2c1 (single isomer, unassigned) [Compound 5] , what IC90 (μg/ml) EFA 29212 is on record?
Result: 1.9 µg/mL

Request: For the compound CNCCCCC(O)(c1ccc2ccccc2c1)C(c1ccccc1)c1cc2cc(Br)ccc2nc1OC (racemic) [Compound 75] , what IC90 (μg/ml) EFA 29212 is on record?
Result: 4.03 µg/mL

Request: For the compound CNCCCCC(O)(CCc1ccccc1)C(c1ccccc1)c1cc2cc(Br)ccc2nc1OC (stereo not shown) [Compound 70] , what IC90 (μg/ml) EFA 29212 is on record?
Result: 2.18 µg/mL

Request: For the compound CNCCCCC(O)(CCc1ccccc1)C(c1ccccc1)c1cc2cc(Br)ccc2nc1OC (stereo not shown) [Compound 71] , what IC90 (μg/ml) EFA 29212 is on record?
Result: 8.68 µg/mL

Request: For the compound COc1nc2ccc(Br)cc2cc1C(c1ccccc1)C(O)(CCCCN(C)C)c1ccc2cc(Br)ccc2c1 (stereo not shown) [Compound 8] , what IC90 (μg/ml) EFA 29212 is on record?
Result: 2.1 µg/mL

Request: For the compound COc1ccc2cc(C(O)(CCCCN(C)C)C(c3ccccc3)c3cc4ccccc4nc3OC)ccc2c1 (stereo not shown) , what IC90 (μg/ml) EFA 29212 is on record?
Result: 8.5 µg/mL

Then there is this compound:
Request: For the compound COc1nc2ccc(Br)cc2cc1C(c1ccccc1)C(O)(CCCCN(C)C)CCCc1ccccc1 (single isomer, unassigned) [Compound 144] , what IC90 (μg/ml) EFA 29212 is on record?
Result: 1.82 µg/mL
